Measured CC50, listed per entry.
Test: Cytotoxicity against mouse MC3T3-G2/PA6 cells assessed as cell viability by MTT assay
Type: cell-based
Write the answer as a number in µM, unit excluded.

* C[C@]12C3=CC[C@@H](c4ccoc4)[C@]3(C)CC[C@@H]1[C@@]1(C)C(=O)C=C[C@@]3(C)CO[C@@H]([C@H]2OC(=O)c2ccncc2)[C@H]13 | 17.2
* CC(=O)O[C@@H]1[C@@H]2OC[C@]3(C)C=CC(=O)[C@](C)([C@H]4CC[C@]5(C)C(=CC[C@H]5c5ccoc5)[C@@]41C)[C@@H]23 | 26.2

Next up:
# input # get_value(readout='CC50', item= C[C@@]1(C=O)C=CC(=O)[C@]2(C)[C@H]3CC[C@]4(C)C(=CC[C@H]4c4ccoc4)[C@]3(C)[C@H](O)[C@H](O)[C@@H]12 )
# output 25

====

Assay: Cytotoxicity against mouse MC3T3-G2/PA6 cells assessed as cell viability by MTT assay
Format: cell-based
measured-attribute: CC50

* C[C@]12C3=CC[C@@H](c4ccoc4)[C@]3(C)CC[C@@H]1[C@@]1(C)C(=O)C=C[C@@]3(C)CO[C@@H]([C@H]2OC(=O)c2ccccc2)[C@H]13 | > 50 µM
* C[C@]12C3=CC[C@@H](c4ccoc4)[C@]3(C)CC[C@@H]1[C@@]1(C)C(=O)C=C[C@@]3(C)CO[C@@H]([C@H]2OC(=O)C(F)(F)F)[C@H]13 | 13.7 µM
* CC(=O)O[C@H]1C[C@H]2[C@](C)(C3=CC[C@@H](c4ccoc4)[C@@]31C)[C@H](O)[C@@H]1OC[C@]3(C)C=CC(=O)[C@@]2(C)[C@@H]13 [CERAMICINE I] | > 50 µM
* CC(=O)O[C@H]1C=CC(=O)[C@@]2(C)[C@H]1[C@@H](O)[C@@H](O)[C@@]1(C)C3=CC[C@@H](c4ccoc4)[C@]3(C)CC[C@H]21 [CERAMICINE K] | > 50 µM
* C[C@@]12CCC(O)[C@@]3(C)[C@H]1[C@@H](OC2)[C@@H](O)[C@@]1(C)C2=CC[C@@H](c4ccoc4)[C@]2(C)CC[C@@H]13 (stereo partly specified) | > 50 µM
* C[C@]12CCC(=O)[C@]3(C)[C@H]4CC[C@]5(C)C(=CCC5C5CCOC5)[C@]4(C)[C@H](O)[C@H](OC1)[C@@H]23 (stereo partly specified) | > 50 µM

# input Look up CC50: CCO[C@@H]1[C@@H]2OC[C@]3(C)C=CC(=O)[C@](C)([C@H]4CC[C@]5(C)C(=CC[C@H]5c5ccoc5)[C@@]41C)[C@@H]23
# output 20.6 µM

# input Value lookup for CC50; key = CC(=O)O[C@@H]1[C@H]2[C@@H](O)C=CC(=O)[C@]2(C)[C@H]2CC[C@]3(C)C(=CC[C@H]3c3ccoc3)[C@]2(C)[C@@H]1O [CERAMICINES A]
# output 30.7 µM

# input For the compound shown here, C[C@]12C3=CC[C@@H](c4ccoc4)[C@]3(C)CC[C@@H]1[C@@]1(C)C(=O)C=C[C@@](C)(O)[C@@H]1[C@@H](O)[C@H]2O [CERAMICINE L] , give the reported CC50.
# output > 50 µM

# input Name the reported CC50 value associated with the compound COCO[C@@H]1[C@@H]2OC[C@]3(C)C=CC(=O)[C@](C)([C@H]4CC[C@]5(C)C(=CC[C@H]5c5ccoc5)[C@@]41C)[C@@H]23
# output 19.7 µM

# input # query: CC50 of entry C/C=C(\C)C(=O)O[C@H]1C[C@H]2[C@](C)(C3=CC[C@@H](c4ccoc4)[C@@]31C)[C@H](O)[C@@H]1OC[C@]3(C)C=CC(=O)[C@@]2(C)[C@@H]13 [CERAMICINE H]
# output > 50 µM
